targetSystem: T1, IL-1beta (UniProt P01584 117-269)
T1 construct: also called IL-1β
assayDetails: Biacore
attributeMeasured: fold difference in affinity vs parental (fold)
Give bare numbers, in fold.

INSERT INTO measurements (binder, endpointresult) VALUES
  ('XPA23 Fab, heavy chain M57N (Fab, V domains shown) VH: EVQLLESGGGLVQPGGSLRLSCAASGFTFSKYFMFWVRQAPGKGLEWVSVISPSGGNTRYADSVKGRFTISRDNSKNTLYLQMNSLRAEDTAVYYCARVGYGGNSDYWGQGTLVTVSS VL: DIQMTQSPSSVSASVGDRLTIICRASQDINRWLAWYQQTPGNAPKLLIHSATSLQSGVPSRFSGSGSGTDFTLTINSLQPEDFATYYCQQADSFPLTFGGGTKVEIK', 0.03),
  ('XPA23 Fab, heavy chain F33D (Fab, V domains shown) VH: EVQLLESGGGLVQPGGSLRLSCAASGFTFSKYDMFWVRQAPGKGLEWVSVISPSGGMTRYADSVKGRFTISRDNSKNTLYLQMNSLRAEDTAVYYCARVGYGGNSDYWGQGTLVTVSS VL: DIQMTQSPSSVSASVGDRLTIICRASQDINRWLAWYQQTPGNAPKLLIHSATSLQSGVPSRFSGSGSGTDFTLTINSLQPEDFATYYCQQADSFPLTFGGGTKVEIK', 0.92),
  ('XPA23 Fab, heavy chain S105F (Fab, V domains shown) VH: EVQLLESGGGLVQPGGSLRLSCAASGFTFSKYFMFWVRQAPGKGLEWVSVISPSGGMTRYADSVKGRFTISRDNSKNTLYLQMNSLRAEDTAVYYCARVGYGGNFDYWGQGTLVTVSS VL: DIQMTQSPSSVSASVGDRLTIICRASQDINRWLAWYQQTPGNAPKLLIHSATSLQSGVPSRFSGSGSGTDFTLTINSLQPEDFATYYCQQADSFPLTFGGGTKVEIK', 1.25),
  ('XPA23 Fab, heavy chain Y101H (Fab, V domains shown) VH: EVQLLESGGGLVQPGGSLRLSCAASGFTFSKYFMFWVRQAPGKGLEWVSVISPSGGMTRYADSVKGRFTISRDNSKNTLYLQMNSLRAEDTAVYYCARVGHGGNSDYWGQGTLVTVSS VL: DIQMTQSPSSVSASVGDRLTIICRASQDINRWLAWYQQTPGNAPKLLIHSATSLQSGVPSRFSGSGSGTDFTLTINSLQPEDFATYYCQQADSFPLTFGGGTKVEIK', 0.04),
  ('XPA23 Fab, heavy chain F35D (Fab, V domains shown) VH: EVQLLESGGGLVQPGGSLRLSCAASGFTFSKYFMDWVRQAPGKGLEWVSVISPSGGMTRYADSVKGRFTISRDNSKNTLYLQMNSLRAEDTAVYYCARVGYGGNSDYWGQGTLVTVSS VL: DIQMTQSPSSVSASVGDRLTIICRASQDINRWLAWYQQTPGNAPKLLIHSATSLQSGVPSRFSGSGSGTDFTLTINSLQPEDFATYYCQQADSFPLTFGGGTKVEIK', 0.06),
  ('XPA23 Fab, heavy chain Y32S (Fab, V domains shown) VH: EVQLLESGGGLVQPGGSLRLSCAASGFTFSKSFMFWVRQAPGKGLEWVSVISPSGGMTRYADSVKGRFTISRDNSKNTLYLQMNSLRAEDTAVYYCARVGYGGNSDYWGQGTLVTVSS VL: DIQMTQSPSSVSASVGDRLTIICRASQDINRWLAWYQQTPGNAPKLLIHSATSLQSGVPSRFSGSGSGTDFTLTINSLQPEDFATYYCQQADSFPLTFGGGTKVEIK', 1.33),
  ('XPA23 Fab, heavy chain S30W (Fab, V domains shown) VH: EVQLLESGGGLVQPGGSLRLSCAASGFTFWKYFMFWVRQAPGKGLEWVSVISPSGGMTRYADSVKGRFTISRDNSKNTLYLQMNSLRAEDTAVYYCARVGYGGNSDYWGQGTLVTVSS VL: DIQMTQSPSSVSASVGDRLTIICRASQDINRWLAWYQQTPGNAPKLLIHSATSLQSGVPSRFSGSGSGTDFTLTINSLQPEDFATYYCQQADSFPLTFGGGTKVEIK', 0.77),
  ('XPA23 Fab, heavy chain S105N (Fab, V domains shown) VH: EVQLLESGGGLVQPGGSLRLSCAASGFTFSKYFMFWVRQAPGKGLEWVSVISPSGGMTRYADSVKGRFTISRDNSKNTLYLQMNSLRAEDTAVYYCARVGYGGNNDYWGQGTLVTVSS VL: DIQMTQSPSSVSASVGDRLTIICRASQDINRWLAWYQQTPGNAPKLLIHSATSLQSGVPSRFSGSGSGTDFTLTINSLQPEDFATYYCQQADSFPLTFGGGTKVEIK', 0.85);

Parameters: items (list). Returns: fold difference in affinity vs parental for each item.
1. XPA23 Fab, heavy chain D106Q (Fab, V domains shown) VH: EVQLLESGGGLVQPGGSLRLSCAASGFTFSKYFMFWVRQAPGKGLEWVSVISPSGGMTRYADSVKGRFTISRDNSKNTLYLQMNSLRAEDTAVYYCARVGYGGNSQYWGQGTLVTVSS VL: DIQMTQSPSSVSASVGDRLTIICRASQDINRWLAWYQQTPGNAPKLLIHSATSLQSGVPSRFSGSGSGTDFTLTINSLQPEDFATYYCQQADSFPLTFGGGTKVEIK
2. XPA23 Fab, heavy chain S54Q (Fab, V domains shown) VH: EVQLLESGGGLVQPGGSLRLSCAASGFTFSKYFMFWVRQAPGKGLEWVSVISPQGGMTRYADSVKGRFTISRDNSKNTLYLQMNSLRAEDTAVYYCARVGYGGNSDYWGQGTLVTVSS VL: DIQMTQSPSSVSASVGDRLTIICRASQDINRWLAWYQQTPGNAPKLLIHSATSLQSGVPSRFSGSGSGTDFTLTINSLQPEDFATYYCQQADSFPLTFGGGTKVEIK

-- reply
[0.02, 1.01]
